Target: T1, human CD73 antigen (human, UniProt P21589 27-547)
T1 construct: also called Biotinylated Human CD73
T1 sequence (looked up): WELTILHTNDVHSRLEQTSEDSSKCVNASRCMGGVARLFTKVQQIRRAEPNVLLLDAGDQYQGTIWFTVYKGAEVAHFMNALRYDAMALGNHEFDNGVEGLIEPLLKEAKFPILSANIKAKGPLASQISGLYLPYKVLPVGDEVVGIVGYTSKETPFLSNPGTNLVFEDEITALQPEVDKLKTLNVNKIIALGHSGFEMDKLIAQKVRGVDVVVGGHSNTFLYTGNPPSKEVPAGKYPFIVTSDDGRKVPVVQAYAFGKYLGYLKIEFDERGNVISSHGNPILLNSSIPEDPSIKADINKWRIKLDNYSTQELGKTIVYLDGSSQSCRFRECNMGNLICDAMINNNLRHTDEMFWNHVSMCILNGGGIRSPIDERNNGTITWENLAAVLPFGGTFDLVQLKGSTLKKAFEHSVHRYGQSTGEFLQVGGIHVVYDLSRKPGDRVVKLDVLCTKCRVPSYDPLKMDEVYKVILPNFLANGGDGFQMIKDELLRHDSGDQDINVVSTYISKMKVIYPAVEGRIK
Assay: ForteBio BLI; antigen on sensor, 100 nM scFv; monovalent; 1:1 model
Observed property: Kd
Field note: include the unit after the figure.

Below, 3 binders whose answers are already recorded.
[
  {
    "Binder": "scfv fragment of ADI-37506 (scFv, V domains shown) VH: EVQLLESGGGLVQPGGSLRLSCAASGFTFSNLAMSWVRQAPGKGLEWVSAISGRATSTYYADSVKGRFTISRDNSKNTLYLQMNSLRAEDTAVYYCARGGPYGSGSYWDTFDYWGQGTLVTVSS VL: EIVMTQSPATLSVSPGERATLSCRASQSVSSNLAWYQQKPGQAPRLLIYGASTRATGIPARFSGSGSGTEFTLTISSLQSEDFAVYYCQQYTNHYTFGGGTKVEIK",
    "Kd": "5.41 nM"
  },
  {
    "Binder": "scfv fragment of ADI-37497 (scFv, V domains shown) VH: EVQLVESGGGLVQPGGSLRLSCAASGFTFDDYFMHWVRQAPGKGLEWVSGISWSSGPIDYADSVKGRFTISRDNAKNSLYLQMNSLRAEDTAVYYCAKGKYLPTGSVDYWGQGTLVTVSS VL: EIVLTQSPGTLSLSPGERATLSCRASQSVSSSYLAWYQQKPGQAPRLLIYGASSRATGIPDRFSGSGSGTDFTLTISRLEPEDFAVYYCQQYYDYPPITFGGGTKVEIK",
    "Kd": "10.2 nM"
  },
  {
    "Binder": "scfv fragment of ADI-37532 (scFv, V domains shown) VH: QVQLVESGGGVVQPGRSLRLSCAASGFTFSSYSMHWVRQAPGKGLEWVAHIVEGSDKYYADSVKGRFTISRDNSKNTLYLQMNSLRAEDTAVYYCARSRYDWSLFDIWGQGTMVTVSS VL: EIVLTQSPGTLSLSPGERATLSCGASQSVSSSYLAWYQQKPGQAPRLLIYGASSRATGIPDRFSGSGSGTDFTLTISRLEPEDFAVYYCQQYVLYPFTFGGGTKVEIK",
    "Kd": "0.581 nM"
  }
]

With those in mind, consider the next binder.
Request: Query: Kd; subject: scfv fragment of ADI-37522 (scFv, V domains shown) VH: QVQLVESGGGVVQPGRSLRLSCAASGFTFSHYGMHWVRQAPGKGLEWVAVISDEGSNKYYADSVKGRFTISRDNSKNTLYLQMNSLRAEDTAVYYCARGWLRYPIAFDIWGQGTMVTVSS VL: DIQLTQSPSSVSASVGDRVTITCRASQDISSWLAWYQQKPGKAPKLLIYAASSLQSGVPSRFSGSGSGTDFTLTISSLQPEDFATYYCQQANDFPITFGGGTKVEIK
Response: 2.43 nM

Values were extracted from patent US20230312741A1.
